# tested on: CDK2/Cyclin E (Homo sapiens)
# test summary: in vitro kinase assay, Scintillation Proximity Assay, incorporation of [γ-33-P]-ATP into GST-Rb
# measurement context: in-vitro SPA kinase assay, GST-Rb substrate, read-out: CDK2 inhibitory activity IC50
pIC50: −log10 of the molar value.
assay readout: pIC50

>>> observed_measurement("CC(C)NCCCNS(=O)(=O)c1ccc(Nc2ncc(C#N)c(N3CCOCC3)n2)cc1 [Example 1]")
6.83
